assay.procedure: Clearance in rat at 10 mg/kg, iv measured after 24 hrs by LC-MS/MS analysis
Format: ADME, organism-based
condition.summary: in vivo
reported.property: clearance (mL/min/kg)
Return type: number; implicit unit mL/min/kg.

*Q* Which value of clearance has been reported for CC1(C)CC[C@]2(C(=O)OCCCCOC(=O)c3ccc(O)cc3)CC[C@]3(C)[C@H](C(=O)C=C4[C@@]5(C)C=C(C#N)C(=O)C(C)(C)[C@@H]5CC[C@]43C)[C@@H]2C1 in the records?
*A* 8.4

----------
assay.procedure: Cmax in rat at 10 mg/kg, iv measured after 24 hrs by LC-MS/MS analysis
Format: ADME, organism-based
condition.summary: in vivo
reported.property: Cmax (ng/mL)
Return type: number; implicit unit ng/mL.

*Q* Which value of Cmax has been reported for CC1(C)CC[C@]2(C(=O)OCCCCOC(=O)c3ccc(O)cc3)CC[C@]3(C)[C@H](C(=O)C=C4[C@@]5(C)C=C(C#N)C(=O)C(C)(C)[C@@H]5CC[C@]43C)[C@@H]2C1 in the records?
*A* 19000

----------
assay.procedure: Cytotoxicity against human GES1 cells assessed as inhibition of cell proliferation incubated for 48 hrs by MTT assay
Type: toxicity, cell-based
Field: IC50 at 48 h. Provide a value for each of the molecules that follow.
Return type: number; implicit unit µM.

*Q* Which value of IC50 at 48 h has been reported for CC1(C)CC[C@]2(C(=O)OCCCCOC(=O)c3ccc(OCc4ccc(B5OC(C)(C)C(C)(C)O5)cc4)cc3)CC[C@]3(C)[C@H](C(=O)C=C4[C@@]5(C)C=C(C#N)C(=O)C(C)(C)[C@@H]5CC[C@]43C)[C@@H]2C1 in the records?
*A* 4.5

*Q* Here is the next molecule: CC1(C)CC[C@]2(C(=O)OCCCCCCOC(=O)c3ccc(OCc4ccc(B5OC(C)(C)C(C)(C)O5)cc4)cc3)CC[C@]3(C)[C@H](C(=O)C=C4[C@@]5(C)C=C(C#N)C(=O)C(C)(C)[C@@H]5CC[C@]43C)[C@@H]2C1
*A* 4.7

*Q* Here is the next molecule: CC1(C)CC[C@]2(C(=O)OCCCOC(=O)C/C=C/c3ccc(OCc4ccc(B5OC(C)(C)C(C)(C)O5)cc4)cc3)CC[C@]3(C)[C@H](C(=O)C=C4[C@@]5(C)C=C(C#N)C(=O)C(C)(C)[C@@H]5CC[C@]43C)[C@@H]2C1
*A* 6.9

*Q* Here is the next molecule: CC1(C)CC[C@]2(C(=O)OCCc3ccc(OCc4ccc(B5OC(C)(C)C(C)(C)O5)cc4)cc3)CC[C@]3(C)[C@H](C(=O)C=C4[C@@]5(C)C=C(C#N)C(=O)C(C)(C)[C@@H]5CC[C@]43C)[C@@H]2C1
*A* 0.8

----------
Field: IC50 at 48 h. Provide a value for each of the compounds that follow.
assay.procedure: Cytotoxicity against human L02 cells assessed as inhibition of cell proliferation incubated for 48 hrs by MTT assay
Type: toxicity, cell-based
Return type: number; implicit unit µM.

*Q* Which value of IC50 at 48 h has been reported for CC1(C)CC[C@]2(C(=O)OCCCOC(=O)Cc3ccc(OCc4ccc(B5OC(C)(C)C(C)(C)O5)cc4)cc3)CC[C@]3(C)[C@H](C(=O)C=C4[C@@]5(C)C=C(C#N)C(=O)C(C)(C)[C@@H]5CC[C@]43C)[C@@H]2C1 in the records?
*A* 4.1

*Q* Here is the next compound: COc1ccc(/C=C/CC(=O)OCCCOC(=O)[C@]23CCC(C)(C)C[C@H]2[C@H]2C(=O)C=C4[C@@]5(C)C=C(C#N)C(=O)C(C)(C)[C@@H]5CC[C@@]4(C)[C@]2(C)CC3)cc1OCc1ccc(B2OC(C)(C)C(C)(C)O2)cc1
*A* 5

*Q* Here is the next compound: COc1cc(C(=O)OCCCCOC(=O)[C@]23CCC(C)(C)C[C@H]2[C@H]2C(=O)C=C4[C@@]5(C)C=C(C#N)C(=O)C(C)(C)[C@@H]5CC[C@@]4(C)[C@]2(C)CC3)ccc1OCc1ccc(B2OC(C)(C)C(C)(C)O2)cc1
*A* 15.6

*Q* Here is the next compound: COc1cc(C(=O)OCCCCOC(=O)[C@]23CCC(C)(C)C[C@H]2[C@H]2C(=O)C=C4[C@@]5(C)C=C(C#N)C(=O)C(C)(C)[C@@H]5CC[C@@]4(C)[C@]2(C)CC3)cc(OC)c1OCc1ccc(B2OC(C)(C)C(C)(C)O2)cc1
*A* 6.1

----------
assay.procedure: Apparent volume of distribution in rat at 10 mg/kg, iv measured after 24 hrs by LC-MS/MS analysis
Format: ADME, organism-based
condition.summary: in vivo, read-out: Vz
reported.property: Vd (L/kg)
Return type: number; implicit unit L/kg.

*Q* Which value of Vd has been reported for CC1(C)CC[C@]2(C(=O)OCCCCOC(=O)c3ccc(O)cc3)CC[C@]3(C)[C@H](C(=O)C=C4[C@@]5(C)C=C(C#N)C(=O)C(C)(C)[C@@H]5CC[C@]43C)[C@@H]2C1 in the records?
*A* 3.99

----------
Field: IC50 at 48 h. Provide a value for each of the molecules that follow.
assay.procedure: Cytotoxicity against human L02 cells assessed as inhibition of cell proliferation incubated for 48 hrs by MTT assay
Assay type: toxicity, cell-based
Return type: number; implicit unit µM.

*Q* Which value of IC50 at 48 h has been reported for CC1(C)CC[C@]2(C(=O)OCCCCCOc3ccc(NC(=O)OCc4ccc(B5OC(C)(C)C(C)(C)O5)cc4)cc3)CC[C@]3(C)[C@H](C(=O)C=C4[C@@]5(C)C=C(C#N)C(=O)C(C)(C)[C@@H]5CC[C@]43C)[C@@H]2C1 in the records?
*A* 4.9

*Q* Here is the next molecule: COC(=O)[C@]12CCC(C)(C)C[C@H]1[C@H]1C(=O)C=C3[C@@]4(C)C=C(C#N)C(=O)C(C)(C)[C@@H]4CC[C@@]3(C)[C@]1(C)CC2
*A* 0.4

*Q* Here is the next molecule: CC1(C)CC[C@]2(C(=O)OCCCOC(=O)C/C=C/c3ccc(OCc4ccc(B5OC(C)(C)C(C)(C)O5)cc4)cc3)CC[C@]3(C)[C@H](C(=O)C=C4[C@@]5(C)C=C(C#N)C(=O)C(C)(C)[C@@H]5CC[C@]43C)[C@@H]2C1
*A* 3.3

*Q* Here is the next molecule: CC1(C)CC[C@]2(C(=O)OCCCCOC(=O)c3ccc(OCc4ccc(B5OC(C)(C)C(C)(C)O5)cc4)cc3)CC[C@]3(C)[C@H](C(=O)C=C4[C@@]5(C)C=C(C#N)C(=O)C(C)(C)[C@@H]5CC[C@]43C)[C@@H]2C1
*A* 6.5

----------
Field: IC50. Provide a value for each of the compounds that follow.
System: BGC-823
assay.procedure: Antiproliferative activity against human BGC-823 cells assessed as inhibition of cell proliferation incubated for 48 hrs by MTT assay
Format: functional, cell-based
condition.summary: BGC-823, 48 h
Return type: number; implicit unit nM.

*Q* Which value of IC50 has been reported for COc1cc(C(=O)OCCCCOC(=O)[C@]23CCC(C)(C)C[C@H]2[C@H]2C(=O)C=C4[C@@]5(C)C=C(C#N)C(=O)C(C)(C)[C@@H]5CC[C@@]4(C)[C@]2(C)CC3)cc(OC)c1OCc1ccc(B2OC(C)(C)C(C)(C)O2)cc1 in the records?
*A* 3500

*Q* Here is the next compound: CC1(C)CC[C@]2(C(=O)OCCCOC(=O)c3ccc(OCc4ccc(B5OC(C)(C)C(C)(C)O5)cc4)cc3)CC[C@]3(C)[C@H](C(=O)C=C4[C@@]5(C)C=C(C#N)C(=O)C(C)(C)[C@@H]5CC[C@]43C)[C@@H]2C1
*A* 2000

*Q* Here is the next compound: CC1(C)CC[C@]2(C(=O)OCCCCCOC(=O)c3ccc(OCc4ccc(B5OC(C)(C)C(C)(C)O5)cc4)cc3)CC[C@]3(C)[C@H](C(=O)C=C4[C@@]5(C)C=C(C#N)C(=O)C(C)(C)[C@@H]5CC[C@]43C)[C@@H]2C1
*A* 2100

*Q* Here is the next compound: CC1(C)CC[C@]2(C(=O)OCCc3ccc(OCc4ccc(B5OC(C)(C)C(C)(C)O5)cc4)cc3)CC[C@]3(C)[C@H](C(=O)C=C4[C@@]5(C)C=C(C#N)C(=O)C(C)(C)[C@@H]5CC[C@]43C)[C@@H]2C1
*A* 700

*Q* Here is the next compound: COc1ccc(/C=C/CC(=O)OCCCOC(=O)[C@]23CCC(C)(C)C[C@H]2[C@H]2C(=O)C=C4[C@@]5(C)C=C(C#N)C(=O)C(C)(C)[C@@H]5CC[C@@]4(C)[C@]2(C)CC3)cc1OCc1ccc(B2OC(C)(C)C(C)(C)O2)cc1
*A* 5500

*Q* Here is the next compound: CC1(C)CC[C@]2(C(=O)OCCOC(=O)c3ccc(OCc4ccc(B5OC(C)(C)C(C)(C)O5)cc4)cc3)CC[C@]3(C)[C@H](C(=O)C=C4[C@@]5(C)C=C(C#N)C(=O)C(C)(C)[C@@H]5CC[C@]43C)[C@@H]2C1
*A* 3800

*Q* Here is the next compound: CC1(C)CC[C@]2(C(=O)OCCCCOC(=O)c3ccc(OCc4ccc(B5OC(C)(C)C(C)(C)O5)cc4)cc3)CC[C@]3(C)[C@H](C(=O)C=C4[C@@]5(C)C=C(C#N)C(=O)C(C)(C)[C@@H]5CC[C@]43C)[C@@H]2C1
*A* 2300

*Q* Here is the next compound: CC1(C)CC[C@]2(C(=O)OCCCOC(=O)C/C=C/c3ccc(OCc4ccc(B5OC(C)(C)C(C)(C)O5)cc4)cc3)CC[C@]3(C)[C@H](C(=O)C=C4[C@@]5(C)C=C(C#N)C(=O)C(C)(C)[C@@H]5CC[C@]43C)[C@@H]2C1
*A* 8700

Source of measurements: ChEMBL document CHEMBL5576127
